Cited source: ChEMBL document CHEMBL2150943

Field: metabolised at 1.5 h, 10 µM. Provide a value for each of the compounds that follow.
experiment: Metabolic stability of the compound in mouse liver homogenate assessed as compound hydrolysis at 10^-5 M after 90 mins by HPLC/MS analysis; assay type: ADME, tissue-based; settings: read-out: Drug metabolism

>>> result("C=CCCC(=O)N1C[C@@H]([C@@H](C)OCCCCc2ccccc2)C1=O")
"> 80%"

// next entry
Fill in reported metabolised at 1.5 h, 10 µM for this entry: C=CCCC(=O)N1C[C@@H]([C@@H](C)OC(=O)CCCc2ccccc2)C1=O
> 80%

----------
biological target: Fatty-acid amide hydrolase 1 (Homo sapiens); assay: Reversible inhibition of human recombinant FAAH assessed as hydrolysis of [3H]-AEA after 10 mins by liquid scintillation counting; conditions: read-out: IC50
Sequence (O00519 whole entry): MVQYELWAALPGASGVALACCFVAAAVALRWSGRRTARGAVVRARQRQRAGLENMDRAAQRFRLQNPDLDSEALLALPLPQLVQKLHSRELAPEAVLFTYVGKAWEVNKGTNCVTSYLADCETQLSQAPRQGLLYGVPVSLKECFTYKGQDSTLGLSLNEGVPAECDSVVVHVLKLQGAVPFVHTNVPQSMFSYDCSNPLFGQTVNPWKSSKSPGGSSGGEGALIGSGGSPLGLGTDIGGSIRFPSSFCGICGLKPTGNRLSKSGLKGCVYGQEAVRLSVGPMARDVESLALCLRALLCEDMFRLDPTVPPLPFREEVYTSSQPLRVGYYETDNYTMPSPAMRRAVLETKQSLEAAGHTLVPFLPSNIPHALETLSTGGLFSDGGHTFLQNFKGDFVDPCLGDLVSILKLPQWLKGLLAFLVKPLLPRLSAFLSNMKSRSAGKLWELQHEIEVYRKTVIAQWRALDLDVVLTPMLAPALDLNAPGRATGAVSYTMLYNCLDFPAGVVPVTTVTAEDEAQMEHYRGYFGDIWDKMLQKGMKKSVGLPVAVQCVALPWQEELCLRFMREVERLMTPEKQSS
Exercise: for every item that follows, state its recorded IC50.
One number for each entry, in µM.

>>> recorded_number("C=CCCCN1C[C@@H]([C@@H](C)OC(=O)CCCc2ccccc2)C1=O")
82.8

// next item, IC50 requested
Specify measured IC50 for C=CCCC(=O)N1CC([C@@H](C)OCCCCc2ccccc2)C1 .
2.9
